Entry source: patent US7256207B2

Measured pKi of individual entries
biological target: UniProtKB P25774
Sequence (P25774 115-331, species assumed): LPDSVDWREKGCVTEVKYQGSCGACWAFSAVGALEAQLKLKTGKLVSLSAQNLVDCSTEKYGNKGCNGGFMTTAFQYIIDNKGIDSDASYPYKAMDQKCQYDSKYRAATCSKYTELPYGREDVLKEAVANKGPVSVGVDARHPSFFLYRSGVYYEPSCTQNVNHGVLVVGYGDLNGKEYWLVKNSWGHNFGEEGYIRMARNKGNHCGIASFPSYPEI
pKi: −log10 of the molar value.
experimental-readout: pKi

# input-smiles, experimental-readout, readout-value
data = [
    ("C[C@@H](CNc1ccc(OC(F)(F)F)cc1)NC(=O)O[C@@H](CC1CCCC1)Cn1cnc2cc(Cl)c(Cl)cc21", "pKi", "> 7.00"),
    ("C[C@@H](CN1CCc2cc(F)ccc21)NC(=O)O[C@H](Cn1cnc2ccccc21)CC(C)(C)C", "pKi", "> 7.00"),
    ("CC(C)(C)C[C@H](Cn1cnc2cc(Cl)c(Cl)cc21)OC(=O)N[C@@H](CO)CN1CCc2cc(F)ccc21", "pKi", "> 5.00"),
    ("C[C@@H](CN1CC(C)(C)c2cc(F)ccc21)NC(=O)O[C@H](Cn1cnc2ccccc21)CC(C)(C)C", "pKi", "> 7.00"),
    ("C[C@@H](CN1CCc2cc(F)ccc21)NC(=O)O[C@@H](CC1CCCC1)Cn1cnc2ccccc21", "pKi", "> 7.00"),
]
